The following binders are shown together with reported Ka values.
- system: human IgE; monoclonal antibody SE44 (human) (UniProt P01854)
- test-description: BIAcore, antibody captured by anti-human IgG, IgE SE44 as analyte
Express your answer in M⁻¹, writing the number without its unit.

- reshaped human C21 antibody C21-Hay3/L1 (antibody, V domains shown) VH: QVQLVQSGAEVKKPGASVKVSCKASGYTFSMYWLEWVRQAPGQRLEWMGEISPGTFTTNYNEKFKARATFTADTSASTAYMELSSLRSEDTAVYYCARFSHFSGSNYDYFDYWGQGTLVTVSS VL: DILLTQSPGTLSLSPGERATLSCRASQSIGTNIHWYQQKPGQAPRLLIKYASESISGIPSRFSGSGSGTDFTLTISRLEPEDFAMYY: 6.1e+09
- reshaped human C21 antibody C21-Hay3/L2 (antibody, V domains shown) VH: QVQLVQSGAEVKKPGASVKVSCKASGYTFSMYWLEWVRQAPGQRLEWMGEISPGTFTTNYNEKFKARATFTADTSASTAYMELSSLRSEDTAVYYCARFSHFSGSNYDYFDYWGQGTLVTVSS VL: DILLTQSPGTLSLSPGERATLSCRASQSIGTNIHWYQQKPGQAPRLLIKYASESISGIPDRFSGSGSGTDFTLTISRLEPEDFAMYYCQQSDSWPTTFGQGTKVEIK: 8.1e+09

Now for a further binder.
[Q] For the binder reshaped human C21 antibody C21-H1/L3 (antibody, V domains shown) VH: QVQLVQSGAEVKKPGASVKVSCKASGYTFSMYWLEWVKQRPGHGLEWVGEISPGTFTTNYNEKFKAKATFTADTSTNTAYMELSSLTSEDTAVYYCARFSHFSG VL: EIVLTQSPGTLSLSPGERATLSCRASQSIGTNIHWYQQKPGQAPRLLIKYASESISGIPSRFSGSGSGTDFTLTISRLEPEDFAMYYCQQSDSWPTTFGQGTKVEIK , give its measured Ka value.
[A] 4.7e+09
